FYI, the data here is from ChEMBL document CHEMBL5244245.

# target desc: M-phase inducer phosphatase 1 (Homo sapiens, UniProt P30304)
# measurement description: Inhibition of CDC25A (unknown origin)
Entries and their IC50
Write it as a number; the unit µM goes unstated.

INSERT INTO measurements (compound, metric, measured_number) VALUES
  ('CC(C)n1c2c(=O)c(-c3ccco3)cc(=O)c2c2c(=O)c3ccccc3c21', 'IC50', 1.68),
  ('Cc1cc(=O)c2c(c1=O)c1c(=O)c3ccccc3c1n2C(C)C', 'IC50', 2);

Query: Given CC(C)n1c2c(=O)c(-c3ccc(F)cc3)cc(=O)c2c2c(=O)c3ccccc3c21 , state its recorded IC50.
Result: 2.73

Query: Given CC(C)n1c2c(=O)c(-c3ccccc3)cc(=O)c2c2c(=O)c3ccccc3c21 , state its recorded IC50.
Result: 2.01

Query: Given CCSC1=C(C)C(=O)c2ccccc2C1=O , state its recorded IC50.
Result: 5.5

Query: Given O=C(O)C1CCCCC1c1c2ccc(=O)cc-2oc2cc(O)ccc12 (configuration not stated) , state its recorded IC50.
Result: 0.65

Query: Given CCCCOc1cc2c(c3c(=O)oc4ccccc4c13)C(=O)C=CC2=O , state its recorded IC50.
Result: 13.2

----------
# target desc: M-phase inducer phosphatase 2 (Homo sapiens, UniProt P30305)
# measurement description: Inhibition of recombinant CDC25B (unknown origin)
Entries and their pIC50
Lab note — pIC50 values are minus log10 of concentrations in M.

INSERT INTO assay_data (chemical_structure, metric, measured_number) VALUES
  ('Cc1nc2c(s1)C(=O)C=C(NCCN(C)C)C2=O', 'pIC50', 7.28);

Query: Given CN(C)CCNC1=CC(=O)c2nc(-c3cc(F)ccc3F)oc2C1=O , state its recorded pIC50.
Result: 7.28

----------
# target desc: M-phase inducer phosphatase 2 (Homo sapiens)
# measurement description: Inhibition of recombinant N-terminal GST-tagged CDC25B (372 to 551 residues) (unknown origin) expressed in Escherichia coli BL21 (DE3) cells incubated for 45 mins
metric: IC50 (µM)
Write it as a number; the unit µM goes unstated.

Query: Lab note: need IC50 with M-phase inducer phosphatase 2 (Homo sapiens) for entry N#Cc1c(F)cc(O)cc1SCCS(=O)(=O)O , please look it up.
Result: 1000

----------
Entries and their IC50
# target desc: M-phase inducer phosphatase 2 (Homo sapiens)
# Sequence (P30305 whole entry): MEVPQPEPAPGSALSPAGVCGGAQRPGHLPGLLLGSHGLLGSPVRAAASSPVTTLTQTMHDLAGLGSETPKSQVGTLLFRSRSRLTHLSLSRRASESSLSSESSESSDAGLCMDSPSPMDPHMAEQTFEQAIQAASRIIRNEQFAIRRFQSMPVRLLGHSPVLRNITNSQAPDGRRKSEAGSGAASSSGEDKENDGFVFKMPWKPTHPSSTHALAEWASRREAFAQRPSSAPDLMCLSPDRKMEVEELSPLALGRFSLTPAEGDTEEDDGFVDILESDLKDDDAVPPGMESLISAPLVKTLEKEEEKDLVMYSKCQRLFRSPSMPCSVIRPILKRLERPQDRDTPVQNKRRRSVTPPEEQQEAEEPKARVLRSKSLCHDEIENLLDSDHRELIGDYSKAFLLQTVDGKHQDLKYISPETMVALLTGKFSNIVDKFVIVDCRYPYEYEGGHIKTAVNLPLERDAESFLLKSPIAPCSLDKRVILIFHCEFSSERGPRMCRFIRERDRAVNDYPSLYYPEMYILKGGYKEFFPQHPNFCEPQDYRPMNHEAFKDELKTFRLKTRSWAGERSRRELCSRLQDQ
# measurement description: Inhibition of human CDC25B
Write it as a number; the unit µM goes unstated.

Query: Given CCOC(=O)c1ccc(N2C(=O)/C(=C\c3cccc(C)c3)SC2c2ccccc2)cc1 (stereo not drawn) , state its recorded IC50.
Result: 39

Query: Given COC1=CC(=O)C=C([S@@+]([O-])c2ccc(C)cc2)C1=O , state its recorded IC50.
Result: 6.99

Query: Given O=C(O)c1ccc(NC2=C(Cl)C(=O)c3ccccc3C2=O)cc1 , state its recorded IC50.
Result: 11.1

----------
# target desc: M-phase inducer phosphatase 2 (Homo sapiens, UniProt P30305)
# measurement description: Inhibition of human recombinant CDC25B
metric: pIC50
Lab note — pIC50 values are minus log10 of concentrations in M.

Query: Given CCOC(=O)C1=C(C)N=c2s/c(=C\c3cc(Br)c(O)c(Br)c3)c(=O)n2C1c1ccc2c(c1)OCO2 (stereo unspecified) , state its recorded pIC50.
Result: 5.35

----------
# target desc: M-phase inducer phosphatase 2 (Homo sapiens)
# measurement description: Inhibition of CDC25B (unknown origin)
metric: pIC50
Lab note — pIC50 values are minus log10 of concentrations in M.

Solved cases below.
INSERT INTO assay_data (compound, target_desc, measured_number) VALUES
  ('CCSC1=C(C)C(=O)c2ccccc2C1=O', 'M-phase inducer phosphatase 2 (Homo sapiens)', 5.33),
  ('CCCCOc1cc2c(c3c(=O)oc4ccccc4c13)C(=O)C=CC2=O', 'M-phase inducer phosphatase 2 (Homo sapiens)', 4.34),
  ('C[C@@H](C[C@@H](O)C(C)(C)C=O)[C@@H]1CC[C@]2(C)C3=CC[C@H]4C(C)(C)C(=O)CC[C@]4(C)[C@H]3CC[C@@]12C', 'M-phase inducer phosphatase 2 (Homo sapiens)', 5.68);

Query: Given O=C(O)C1CCCCC1c1c2ccc(=O)cc-2oc2cc(O)ccc12 (stereo unspecified) , state its recorded pIC50.
Result: 6.11

Query: Given CCCCCCCCCCCC/C=C/[C@]12C(=O)O[C@]3(C)O[C@]4(C)OC(=O)C(=C[C@H]1CCCCCCCCCCCC)C4C32 (single isomer, unassigned) , state its recorded pIC50.
Result: 5.19

Query: Given CCOC(=O)C1=C(C)N=c2s/c(=C\c3ccc(-n4cc(CNC(=O)Nc5sccc5C(=O)O)nn4)cc3)c(=O)n2C1c1ccccc1 (stereo unspecified) , state its recorded pIC50.
Result: 5.52

----------
# target desc: M-phase inducer phosphatase 1 (Homo sapiens, UniProt P30304)
# Sequence (P30304 whole entry): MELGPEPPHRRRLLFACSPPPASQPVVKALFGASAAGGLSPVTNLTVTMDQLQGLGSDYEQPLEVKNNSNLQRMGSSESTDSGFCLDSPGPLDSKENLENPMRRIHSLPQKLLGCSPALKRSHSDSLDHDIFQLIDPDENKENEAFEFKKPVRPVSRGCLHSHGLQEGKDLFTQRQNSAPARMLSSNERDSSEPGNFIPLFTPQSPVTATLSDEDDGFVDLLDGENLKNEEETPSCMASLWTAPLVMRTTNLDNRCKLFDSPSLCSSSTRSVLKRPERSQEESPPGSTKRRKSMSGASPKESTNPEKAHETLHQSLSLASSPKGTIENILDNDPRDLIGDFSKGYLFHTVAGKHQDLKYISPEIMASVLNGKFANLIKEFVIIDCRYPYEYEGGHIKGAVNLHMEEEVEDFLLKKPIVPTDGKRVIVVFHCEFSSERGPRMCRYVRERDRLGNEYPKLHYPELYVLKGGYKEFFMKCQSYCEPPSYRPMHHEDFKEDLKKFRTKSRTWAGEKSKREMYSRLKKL
# measurement description: Inhibition of human CDC25A
Entries and their pIC50
Lab note — pIC50 values are minus log10 of concentrations in M.

INSERT INTO results (chemical_structure, target_desc, measured_number) VALUES
  ('COC1=CC(=O)C=C([S@@+]([O-])c2ccc(C)cc2)C1=O', 'M-phase inducer phosphatase 1 (Homo sapiens, UniProt P30304)', 5.59);

Pending molecule:
Query: Given O=C(O)c1ccc(NC2=C(Cl)C(=O)c3ccccc3C2=O)cc1 , state its recorded pIC50.
Result: 5.50

----------
# target desc: M-phase inducer phosphatase 1 (Homo sapiens)
# measurement description: Inhibition of recombinant N-terminal GST-tagged CDC25A (unknown origin) expressed in Escherichia coli BL21 (DE3) cells incubated for 2 hrs
metric: IC50

Query: Given COc1ccc2c(CSC3=CC(=O)c4ccccc4C3=O)cc(=O)oc2c1 , state its recorded IC50.
Result: 4.3 µM

----------
# target desc: M-phase inducer phosphatase 3 (Homo sapiens, UniProt P30307)
# Sequence (P30307 whole entry): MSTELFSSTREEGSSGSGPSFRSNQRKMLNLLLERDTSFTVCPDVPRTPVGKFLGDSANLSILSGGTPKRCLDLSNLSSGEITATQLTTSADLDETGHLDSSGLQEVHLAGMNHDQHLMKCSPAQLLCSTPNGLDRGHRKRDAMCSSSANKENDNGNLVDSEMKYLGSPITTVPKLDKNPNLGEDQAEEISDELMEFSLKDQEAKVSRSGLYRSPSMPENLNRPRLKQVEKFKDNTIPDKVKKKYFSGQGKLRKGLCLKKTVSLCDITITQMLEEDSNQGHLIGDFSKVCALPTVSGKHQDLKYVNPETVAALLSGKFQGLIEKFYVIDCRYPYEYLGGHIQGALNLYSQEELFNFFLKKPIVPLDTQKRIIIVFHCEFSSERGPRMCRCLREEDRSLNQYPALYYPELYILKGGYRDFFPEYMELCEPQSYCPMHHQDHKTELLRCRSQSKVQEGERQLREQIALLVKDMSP
# measurement description: Inhibition of recombinant N-terminal GST-tagged CDC25C (unknown origin) expressed in Escherichia coli BL21 (DE3) cells incubated for 2 hrs
metric: IC50
Returns: string containing the numeric result and its unit.

Query: Given COc1ccc2c(CSC3=CC(=O)c4ccccc4C3=O)cc(=O)oc2c1 , state its recorded IC50.
Result: 900 nM

----------
# target desc: M-phase inducer phosphatase 3 (Homo sapiens, UniProt P30307)
# measurement description: Inhibition of CDC25C (unknown origin)
Note to self: IC50 under 4000 nM means rule met, ties and anything higher get rule not met.

INSERT INTO results (molecule, target_desc, class_assignment) VALUES
  ('CC(C)n1c2c(=O)c(-c3ccco3)cc(=O)c2c2c(=O)c3ccccc3c21', 'M-phase inducer phosphatase 3 (Homo sapiens, UniProt P30307)', 'rule met'),
  ('O=C(O)C1CCCCC1c1c2ccc(=O)cc-2oc2cc(O)ccc12 (stereo unspecified)', 'M-phase inducer phosphatase 3 (Homo sapiens, UniProt P30307)', 'rule met'),
  ('Cc1cc(=O)c2c(c1=O)c1c(=O)c3ccccc3c1n2C(C)C', 'M-phase inducer phosphatase 3 (Homo sapiens, UniProt P30307)', 'rule met'),
  ('CC(C)n1c2c(=O)c(-c3ccc(F)cc3)cc(=O)c2c2c(=O)c3ccccc3c21', 'M-phase inducer phosphatase 3 (Homo sapiens, UniProt P30307)', 'rule met'),
  ('CCCCOc1cc2c(c3c(=O)oc4ccccc4c13)C(=O)C=CC2=O', 'M-phase inducer phosphatase 3 (Homo sapiens, UniProt P30307)', 'rule not met');

From here, focus on the item given below.
Query: For this molecule, is IC50 lower than 4000 nM? CC(C)n1c2c(=O)c(-c3ccccc3)cc(=O)c2c2c(=O)c3ccccc3c21
Result: rule met
